# Test system: A549
# assay-notes: Cytotoxicity MTS, solid tumors, NSCL A549
# Assay type: cell-based
# condition: 4-Parameter Curve Fit, NA = not active
pIC50: −log10 of the molar value.
Short version: pIC50 at least 5 is Yes, less is No.

Solved cases (3 shown):
1. CCCCCCCCCCCCCCCCCC(=O)[C@H](C)N [drawing 120]	No
2. CCCCCCCCCCCCCC[C@@H](O)[C@H](C)N [drawing 117]	No
3. CCCCCCCCCCCCCCC[C@@H](O)[C@H](C)N [drawing 112]	Yes

Now take the following molecule into account.
(Q) Is pIC50 for CCCCCCCCCCCCCCCC[C@@H](O)[C@H](C)N [drawing 113] at or above 5?
(A) Yes

----------
# Test system: RAMOS
# assay-notes: Cytotoxicity MTS, leukemias/lymphomas, RAMOS
# Type: cell-based
# condition: 4-Parameter Curve Fit, NA = not active, read-out: Cytotoxicity IC50 Lymphoma (Burkitts B cell) RAMOS
readout-kind: pIC50
# pIC50 = -log10(concentration in molar units)

Please review the entries below; each comes with its answer.
1) CCCCCCCCCCCCCCCCCC(=O)[C@H](C)N [drawing 131]	5.78
2) CCCCCCCCCCCCCCCC(=O)C(N)CC (stereo not drawn)	5.92

--- query ---
(Q) Any idea what its pIC50 is? The compound is CCCCCCCCCCCCCCCC(O)C(C)N (stereo not drawn)
(A) 5.67

----------
# Tested on: PANC-1
# assay-notes: Cytotoxicity MTS, solid tumors, Pancreas PANC-1
# Format: cell-based
# condition: 4-Parameter Curve Fit, NA = not active
readout-kind: pIC50
Bear in mind: pIC50 is minus log10 of a mol/L concentration; give just that figure.

(Q) # get_value(readout='pIC50', item= CCCCCCCCCCCCCCCC[C@@H](O)[C@H](C)N [drawing 113] )
(A) 6.78

(Q) Param item = CCCCCCCCCCCCCCC[C@@H](O)[C@@H](N)CC [drawing 116] ; retrieve measured pIC50.
(A) 6.73

(Q) Quick one: pIC50 for CCCCCCCCCCCCCC[C@@H](O)[C@H](C)N [drawing 115] ?
(A) 7.06

(Q) Item under review: CCCCCCCCCCCCCCCCC[C@@H](O)[C@H](C)N [drawing 114] . Reported pIC50?
(A) 6.14

----------
# Test system: A549
# assay-notes: Cytotoxicity of spisulosine analogs, A549 (after Berjeron et al)
# Format: cell-based
# condition: A549; methodology after Berjeron et al; NA=not active; read-out: Cytotoxicity IC50 A549
Each entry below carries its recorded pIC50.
Remember, pIC50 is on a log scale: it is -log10 of the molar concentration.

Below: 6 compounds and their reported pIC50.
1. CCCCCCCCCCCCCCCCCC(=O)[C@H](C)N [drawing 105]	6.84
2. CCCCCCCCCCCCCCCC(=O)[C@@H](N)CC [drawing 106]	7.52
3. CCCCCCCCCCCCCCC[C@@H](O)[C@@H](N)CC [drawing 58, (3S,4R)-3-Amino-4-nonadecanol]	7.48
4. CCCCCCCCCCCCCC[C@@H](O)[C@@H](N)CC [drawing 57]	7.81
5. CCCCCCCCCCCCCCCC[C@@H](O)[C@H](C)N [drawing 37, (2S,3R)-2-Amino-3-nonadecanol]	7.48
6. CCCCCCCCCCCCCC[C@@H](O)[C@H](C)N [drawing 101]	6.79

(Q) Reported pIC50 for CCCCCCCCCCCCCCCC(=NO)C(C)N (stereo not drawn) : what is it?
(A) 6.47

(Q) Can you share its pIC50? I mean this compound: CCCCCCCCCCCCCCCCC[C@@H](O)[C@H](C)N [drawing 38, (2S,3R)-2-Amino-3-eicosanol]
(A) 7.50

(Q) Requested field: pIC50. Item: CCCCCCCCCCCCC[C@@H](O)[C@H](C)N [drawing 41, (2S,3R)-2-Amino-3-hexadecanol]
(A) 6.71

(Q) For the compound shown here, `CCCCCCCCCCCCCCC[C@H](N)[C@H](C)N` , give the reported pIC50.
(A) 6.55

(Q) What does the record list as pIC50 for CCCCCCCCCCCCCCCC(=O)[C@H](C)N [drawing 102] ?
(A) 6.81

----------
# Tested on: LNCAP
# assay-notes: Cytotoxicity MTS, solid tumors, Prostate LNCAP
# Format: cell-based
# condition: 4-Parameter Curve Fit, NA = not active
Listing of entries alongside the reported pIC50.
Formally, pIC50 is defined as -log10 of the concentration c, with c in mol/L.

1. CCCCCCCCCCCCCCCC[C@@H](O)[C@H](C)N [drawing 113]	7.35
2. CCCCCCCCCCCCCC[C@@H](O)[C@H](C)N [drawing 115]	7.15
3. CCCCCCCCCCCCCCC[C@@H](O)[C@@H](N)CC [drawing 116]	5.20

Could you now look at the following compound, please?
(Q) # get_value(readout='pIC50', item= CCCCCCCCCCCCCCCCC[C@@H](O)[C@H](C)N [drawing 114] )
(A) 5.11

----------
# Test system: HT29
# assay-notes: Cytotoxicity of spisulosine analogs, HT29 (after Berjeron et al)
# Type: cell-based
# condition: HT29; methodology after Berjeron et al; NA=not active; hydrochloride; read-out: Cytotoxicity IC50 HT29
Counter-ions that a name gives are not always drawn.
readout-kind: pIC50
// scale note: pIC50 = -log10(conc_M); give the bare number

Example compounds with recorded pIC50:
1) CCCCCCCCCCCCCCC[C@@H](O)[C@H](C)N [drawing 47, hydrochloride]	7.81
2) CCCCCCCCCCCCCCC[C@@H](O)[C@@H](N)CCC [drawing 65, hydrochloride]	7.54
3) CCCCCCCCCCCCCCCCC[C@@H](O)[C@@H](N)CC [drawing 63, hydrochloride]	7.56

(Q) Give the measured pIC50 of CCCCCCCCCCCCCCCCCC[C@@H](O)[C@H](C)N [drawing 53, hydrochloride] .
(A) 7.56

----------
# Tested on: K562
# assay-notes: Cytotoxicity MTS, leukemias/lymphomas, K562
# Format: cell-based
# condition: 4-Parameter Curve Fit, NA = not active, read-out: Cytotoxicity IC50 CML (Chronic myelogenous) K562
readout-kind: IC50 (nM)
Value expressed in nM; do not type the unit.

(Q) Which IC50 is reported for this compound? CCCCCCCCCCCCCCCC(O)C(C)N (stereo not shown)
(A) 784

----------
# Tested on: P388
# assay-notes: Cytotoxicity of spisulosine analogs, P388 (after Berjeron et al)
# Assay type: cell-based
# condition: Mus musculus, P388, read-out: Cytotoxicity IC50 P388
readout-kind: IC50 (nM)
Respond numerically; units are nM and should not be typed.

(Q) Form entry - test system: P388; read-out: IC50; molecule: `CCCCCCCCCCCCCCC[C@@H](OP(=O)(OC)OC)[C@H](C)N`
(A) 1270

----------
# Tested on: A549
# assay-notes: Cytotoxicity of spisulosine analogs, A549 (after Berjeron et al)
# Assay type: cell-based
# condition: A549; methodology after Berjeron et al; NA=not active; dihydrochloride; read-out: Cytotoxicity IC50 A549
Structures can show the parent of a compound that is named as a salt.
readout-kind: IC50 (nM)
Quick note: give the figure in nM, leave out the unit.

(Q) For CCCCCCCCCCCCCCC[C@@H](O)[C@@H](N)CCCN [drawing 72, dihydrochloride] , what is its reported IC50?
(A) 1240

----------
# System: A549
# assay-notes: Cytotoxicity of spisulosine analogs, A549 (after Berjeron et al)
# Assay type: cell-based
# condition: A549; methodology after Berjeron et al; NA=not active; hydrochloride; read-out: Cytotoxicity IC50 A549
pIC50: −log10 of the molar value. Where a name gives a salt, the structure may show the parent alone.
I would appreciate it if you labelled entries yes (1) when pIC50 is 8 or higher, otherwise no (0).

1. CCCCCCCCCCCCCCCCCC[C@@H](O)[C@H](C)N [drawing 53, hydrochloride]	no (0)
2. CCCCCCCCCCCCCCC[C@@H](O)[C@@H](N)CC [drawing 59, hydrochloride]	yes (1)
3. CCCCCCCCCCCCCCC[C@@H](O)[C@@H](N)CCC [drawing 65, hydrochloride]	no (0)
4. CCCCCCCCCCCCCCCCC[C@@H](O)[C@@H](N)CC [drawing 63, hydrochloride]	no (0)
5. CCCCCCCCCCCCC[C@@H](O)[C@H](C)N [drawing 42, hydrochloride]	yes (1)
6. CCCCCCCCCCCCCC[C@@H](O)[C@H](C)N [drawing 45, hydrochloride]	no (0)
7. CCCCCCCCCCCCCCC[C@@H](O)[C@@H](N)Cc1ccc(O)cc1 [drawing 70, hydrochloride]	no (0)
8. CCCCCCCCCCCCCCC[C@@H](O)[C@H](C)N [drawing 47, hydrochloride]	no (0)

(Q) Please tell me: is the compound CCCCCCCCCCCCCCCC[C@@H](O)[C@@H](N)CC [drawing 61, hydrochloride] at or over 8 in terms of pIC50?
(A) no (0)

Values compiled from patent US20040048834A1.
